- System: B16F10 cells (mouse melanoma [malignant melanoma] cells)
Measured GI50 accompanies every entry in the list below.
Please respond with the number in nM and leave the unit unwritten.

Give reported GI50 value for `CCc1nc2c(N3CCOCC3)nc(SCc3ccc(OC)c(NC(C)=O)c3)nc2n1C`
1340

Give reported GI50 value for `COc1ccc(CSc2nc(N(C)C)c3ncn(C)c3n2)cc1`
340

====

Measured GI50 accompanies every entry in the list below.
- Test system: B16F10 cells (mouse melanoma [malignant melanoma] cells)
- assay_details: in vitro antitumor activity test, B16F10 cells, XTT colorimetry
- Format: cell-based
- measurement_conditions: B16-F10, cultured 72 hours

| compound | experimental_result |
| --- | --- |
| CCc1nc2c(N3CCOCC3)nc(SCc3ccc(OC)c(Cl)c3)nc2n1C | 1680 nM |
| CCN(CC)c1nc(SCc2ccc(OC)cc2)nc2c1ncn2C | 1380 nM |
| COc1ccc(CSc2nc(N(C)OC)c3ncn(C)c3n2)cc1N | 190 nM |
| CCc1nc2c(N3CCOCC3)nc(SCc3ccc(OC)c(C#N)c3)nc2n1C | 380 nM |
| CCc1nc2c(N3CCN(N=O)CC3)nc(SCc3ccc(OC)c(F)c3)nc2n1C | 320 nM |
| CCc1ccc(CSc2nc(N3CCOCC3)c3nc(CC)n(C)c3n2)cc1 | 3910 nM |
| COc1ccc(CSc2nc(-n3cccc3)c3ncn(C)c3n2)cc1N | 410 nM |
| CCc1nc2c(N3CCN(N=O)CC3)nc(SCc3ccc(OC)cc3)nc2n1C | 340 nM |

Give reported GI50 value for `CCN(C)c1nc(SCc2ccc(OC)c(N)c2)nc2c1ncn2C`
510 nM

Give reported GI50 value for `CCN(C)c1nc(SCc2ccc(OC)cc2)nc2c1ncn2C`
380 nM

Give reported GI50 value for `CCc1nc2c(N3CCOCC3)nc(SCCCc3ccc(OC)cc3)nc2n1C`
1430 nM

Give reported GI50 value for `COc1ccc(CSc2nc(-c3cn[nH]c3)c3ncn(C)c3n2)cc1`
70 nM

Give reported GI50 value for `CCc1nc2c(N3C=COCC3)nc(SCc3ccc(OC)cc3)nc2n1CC`
420 nM

Give reported GI50 value for `CCN(C)c1nc(SCc2ccc(OC)c(C#N)c2)nc2c1ncn2C`
120 nM

Give reported GI50 value for `CNc1nc(SCc2ccc(OC)cc2)nc2c1ncn2C`
340 nM

====

Measured GI50 on PC-3 cells (human prostate cancer cells) follows.
Please respond with the number in µM and leave the unit unwritten.

Some entries whose results are on file:
| smiles_input | GI50 (µM) |
| --- | --- |
| CNc1nc(SCc2ccc(OC)cc2)nc2c1ncn2C | 0.11 |
| COc1ccc(CSc2nc(N3C=COCC3)c3ncn(C)c3n2)cc1N | 0.15 |

Find the measured GI50 of `CCc1nc2c(N3CCOCC3)nc(SCc3ccc(OC)c(Br)c3)nc2n1C` with PC-3 cells (human prostate cancer cells) as test system.
0.36

Find the measured GI50 of `CCc1nc2c(N(C)C)nc(SCc3ccc(OC)c(NC(C)=O)c3)nc2n1C` with PC-3 cells (human prostate cancer cells) as test system.
0.87

Find the measured GI50 of `CCc1nc2c(N(C)C)nc(SCc3ccc(OC)c(F)c3)nc2n1C` with PC-3 cells (human prostate cancer cells) as test system.
0.05

Find the measured GI50 of `COc1ccc(CSc2nc(N3CC=CC3)c3ncn(C)c3n2)cc1[N+](=O)[O-]` with PC-3 cells (human prostate cancer cells) as test system.
0.1

Find the measured GI50 of `CCc1ccc(CSc2nc(N3CCOCC3)c3nc(CC)n(C)c3n2)cc1N` with PC-3 cells (human prostate cancer cells) as test system.
1.73

Find the measured GI50 of `C=Cc1cc(CSc2nc(N3CCOCC3)c3nc(CC)n(C)c3n2)ccc1OC` with PC-3 cells (human prostate cancer cells) as test system.
0.44

Find the measured GI50 of `CCc1nc2c(N(C)C)nc(SCc3ccc(OC)c(C#N)c3)nc2n1C` with PC-3 cells (human prostate cancer cells) as test system.
0.12

Find the measured GI50 of `CCc1nc2c(N(C)C)nc(SCc3ccc(OC)c(N)c3)nc2n1C` with PC-3 cells (human prostate cancer cells) as test system.
0.13

Find the measured GI50 of `COc1ccc(CSc2nc(N3CCOCC3)c3ncn(C)c3n2)cc1F` with PC-3 cells (human prostate cancer cells) as test system.
0.18

Find the measured GI50 of `CCc1nc2c(N3C=COCC3)nc(SCc3ccc(OC)c(F)c3)nc2n1C` with PC-3 cells (human prostate cancer cells) as test system.
0.09

Find the measured GI50 of `CCc1nc2c(N3C=COCC3)nc(SCc3ccc(OC)cc3)nc2n1CC` with PC-3 cells (human prostate cancer cells) as test system.
0.31

Find the measured GI50 of `COc1ccc(CSc2nc(-n3cccc3)c3ncn(C)c3n2)cc1N` with PC-3 cells (human prostate cancer cells) as test system.
0.47

====

- Tested on: B16F10 cells (mouse melanoma [malignant melanoma] cells)
Measured GI50 accompanies every entry in the list below.
Please respond with the number in µM and leave the unit unwritten.

| compound | GI50 [µM] |
| --- | --- |
| CCc1nc2c(N3C=COCC3)nc(SCc3ccc(OC)c(F)c3)nc2n1C [Compound 157] | 0.08 |
| COc1ccc(CSc2nc(N(C)C(C)=O)c3ncn(C)c3n2)cc1 [Compound 61] | 0.84 |
| CCOc1ccc(CSc2nc(N3CCOCC3)c3ncn(C)c3n2)cc1 [Compound 99] | 1.98 |

Give reported GI50 value for C=Cc1cc(CSc2nc(N3CCOCC3)c3nc(CC)n(C)c3n2)ccc1OC [Compound 79]
1.5

Give reported GI50 value for COc1ccc(CSc2nc(N(C)C)c3ncn(C)c3n2)cc1F [Compound 86]
0.06

Give reported GI50 value for C/C=C/c1nc(SCc2ccc(OC)c(N)c2)nc2c1ncn2C [Compound 173]
0.25

====

Measured GI50 on B16F10 cells (mouse melanoma [malignant melanoma] cells) follows.
Please respond with the number in nM and leave the unit unwritten.

Some entries whose results are on file:
| molecule | GI50, nM |
| --- | --- |
| CCn1cnc2c(N3C=COCC3)nc(SCc3ccc(OC)c(N)c3)nc21 [Compound 151] | 1470 |
| CCc1nc2c(N3CCN(N=O)C(C)C3)nc(SCc3ccc(OC)cc3)nc2n1C (stereo in doubt) [Compound 22] | 1610 |
| CCOc1ccc(CSc2nc(N(C)C)c3ncn(C)c3n2)cc1N [Compound 140] | 160 |

// next entry
Find the measured GI50 of COc1ccc(CSc2nc(N3CC=CC3)c3ncn(C)c3n2)cc1[N+](=O)[O-] [Compound 142] with B16F10 cells (mouse melanoma [malignant melanoma] cells) as test system.
190

====

Measured GI50 on PC-3 cells (human prostate cancer cells) follows.

Some entries whose results are on file:
| molecule | GI50 |
| --- | --- |
| CCOc1ccc(CSc2nc(N3CCOCC3)c3nc(CC)n(CC)c3n2)cc1F | 310 nM |
| CCNc1nc(SCc2ccc(OC)cc2)nc2c1ncn2C | 450 nM |
| COc1ccc(CSc2nc(N3C=COCC3)c3ncn(C)c3n2)cc1C#N | < 40 nM |
| CCOc1ccc(CSc2nc(N3CCOCC3)c3ncn(C)c3n2)cc1 | 5950 nM |
| CCn1cnc2c(N3C=COCC3)nc(SCc3ccc(OC)c(F)c3)nc21 | 220 nM |
| CCNc1nc(SCc2ccc(OC)c(F)c2)nc2c1ncn2C | 340 nM |

Find the measured GI50 of `COc1ccc(CSc2nc(-c3c(C)noc3C)c3ncn(C)c3n2)cc1` with PC-3 cells (human prostate cancer cells) as test system.
70 nM

Find the measured GI50 of `CNc1nc(SCc2ccc(OC)c(F)c2)nc2c1ncn2C` with PC-3 cells (human prostate cancer cells) as test system.
< 40 nM

Find the measured GI50 of `C/C=C/c1nc(SCc2ccc(OC)c(N)c2)nc2c1ncn2C` with PC-3 cells (human prostate cancer cells) as test system.
380 nM

====

- System: PC-3 cells (human prostate cancer cells)
Where a name gives a salt, the structure may show the parent alone.
experimental_readout: GI50 (nM)
Please respond with the number in nM and leave the unit unwritten.

Some entries whose results are on file:
| compound | GI50 [nM] |
| --- | --- |
| CCc1nc2c(N3CCOCC3)nc(SCc3ccc(OC)c(C#N)c3)nc2n1CC | 110 |
| CCc1nc2c(N3CCOCC3)nc(SC(c3ccccc3)c3ccccc3)nc2n1C | 150 |
| CCc1nc2c(N3CCOCC3)nc(SCc3ccc(OC)c(NC(=O)CN)c3)nc2n1C [Compound 28, hydrochloride] | 990 |

// next entry
Give reported GI50 value for `CCOc1ccc(CSc2nc(N3CCOCC3)c3nc(CC)n(CC)c3n2)cc1N`
950
